System: Staphylococcus aureus NRS384 (MRSA USA300)
experiment_summary: Initial MIC screening, broth microdilution (CLSI)
Type: cell-based
run_parameters: Staphylococcus aureus, Staphylococcus aureus NRS384 (MRSA USA300), broth microdilution, visual reading; read-out: MIC
result_type: MIC

// worked examples, MIC included
1. C=C1C(=O)O[C@H](c2ccc([N+](=O)[O-])cc2)[C@@H]1C :: > 128 µg/mL
2. C/C=C1/C(=O)O[C@H](c2ccc(C)cc2)[C@H]1C :: > 128 µg/mL
3. O=C1OC(c2ccccc2)C(C2CCCCC2)C1CN1CCCCC1 (centres unmarked) :: > 64 µg/mL
4. C=C1C(=O)O[C@H](c2ccc3ccccc3n2)[C@@H]1c1ccccc1 :: > 128 µg/mL
5. C=C1C(=O)O[C@H](CCO[Si](c2ccccc2)(c2ccccc2)C(C)(C)C)[C@@H]1c1ccc(C)cc1 :: > 128 µg/mL

get_value(item= O=C1OCCC1CN1CCCCC1 (centres unmarked) , readout=MIC) returns > 128 µg/mL

get_value(item= C=C1C(=O)O[C@H](c2ccccc2)[C@@H]1c1ccc(C#N)cc1 , readout=MIC) returns > 128 µg/mL

get_value(item= Cc1ccc([C@@H]2[C@H](CN(C)C)C(=O)O[C@@H]2c2ccc(C)cc2)cc1 , readout=MIC) returns 32 µg/mL

get_value(item= C=C1C(=O)O[C@H](c2ccnc3ccccc23)[C@@H]1c1ccccc1 , readout=MIC) returns 32 µg/mL

get_value(item= C=C1C(=O)O[C@H](c2ccccc2)[C@@H]1c1ccc(C)cc1 , readout=MIC) returns 32 µg/mL

get_value(item= C/C=C/[C@H]1OC(=O)C(CN2CCCCC2)[C@H]1c1ccc(Br)cc1 (some centres unmarked) , readout=MIC) returns 16 µg/mL

get_value(item= C=C1C(=O)O[C@H](c2ccc(OC)cc2)[C@@H]1c1ccc(Br)cc1 , readout=MIC) returns 8 µg/mL

get_value(item= C=C1C(=O)O[C@H](c2cccc(C#N)c2)[C@@H]1c1ccc(OC)cc1 , readout=MIC) returns 16 µg/mL

get_value(item= O=C1O[C@H](c2cccc3ccccc23)[C@H](c2ccccc2)C1CN1CCCCC1 (some centres unmarked) , readout=MIC) returns 8 µg/mL

get_value(item= O=C1OC[C@H](/C=C/c2ccccc2)[C@@H]1CN1CCCCC1 , readout=MIC) returns > 128 µg/mL

get_value(item= C=C1C(=O)OC(C2=CC=CCC2)C1C1CCCCC1 (centres unmarked) , readout=MIC) returns > 64 µg/mL

get_value(item= C=C1C(=O)OC[C@@H]1c1ccccc1 , readout=MIC) returns > 128 µg/mL

---

System: VRSA 10
experiment_summary: MIC, Gram-positive panel
Type: cell-based
run_parameters: Staphylococcus aureus; VRSA 10; read-out: MIC
// MIC lookup, one value per entry
Respond with the bare value in µg/mL.

// worked examples, MIC included
1) C=C(C(=O)OC)C(c1ccc2ccccc2c1)C(O)c1cccc2ccccc12 (stereo not shown) [Compound 148] :: 2
2) C=C1C(=O)O[C@H](C2=CC=CCC2)[C@H]1c1cccc2ccccc12 [Compound 187] :: 1
3) C=C1C(=O)O[C@H](c2ccccc2)[C@@H]1c1cccc2ccccc12 [Compound 151] :: 2
4) C=C(C(=O)OC)C(c1ccc2ccccc2c1)C(O)c1ccc2ccccc2c1 (stereo not shown) [Compound 149] :: 8
5) C=C(C(=O)OC)C(c1cccc2ccccc12)C(O)c1ccccc1 (stereo not shown) [Compound 144] :: 1
6) C=C1C(=O)O[C@H](c2cccc3ccccc23)[C@@H]1c1ccc2ccccc2c1 [Compound 155] :: 1

As a next step, examine the compound that follows.
get_value(item= C=C1C(=O)O[C@H](c2ccc3ccccc3c2)[C@@H]1c1ccc2ccccc2c1 [Compound 158] , readout=MIC) returns 1

Reference for the values: patent US20210317099A1
